In this section, each of the compounds is paired with its reported inhibition.
- System: E. coli NCTC 12923 + PMBN growth inhibition, 100 uM
- procedure_details: microbial growth inhibition plus red cell haemolysis – Idler compounds, first plate, PMBN-permeabilized strains, profiling panel (AID 2061108)
- cond: S. aureus ATCC 9144 growth inhibition; measured here: E. coli plus PMBN; at 100 µM; stronger effect = higher value
Dear colleague, please return just the value in %, with no unit written.

Please review the following examples before continuing.
CCS(=O)(=O)c1ccc(CNc2nc3ccccc3cc2C#N)s1
-0.61
O=C(N/N=C/c1ccncc1O)c1ccncc1
1.36

Given the compound O=c1[nH]c(=O)c2cc(S(=O)(=O)Nc3cc(F)c(N4CCC(N5CCOCC5)CC4)c(F)c3)ccc2[nH]1 , what is its reported inhibition? 1.59

How about CN(C)C(=O)c1cncc(-c2cccc(C3(C#N)CC3)c2)c1 ? -3.05

How about CCC(C)C(N)C(=O)NS(=O)(=O)c1cccc(-c2cc3ncnc(N)c3s2)c1 (stereo unspecified) ? -27.4

How about CC(C)NC(=O)Nc1cccc(C(=O)NC(C)c2cccc(Br)c2)c1 (stereo unspecified) ? 28.6

How about CC1(C)C2CCC1(C)C(OCC(O)CNC1CCCCC1)C2 (stereo unspecified) ? 100

How about O=C(N/N=C/c1cnc(C(F)(F)F)nc1)c1ccncc1 ? 11.2

How about N#Cc1c(N2Cc3cccc(O)c3C2)nc2ccccc2c1C(F)(F)F ? 35.4

How about COc1cccc(C(=O)NCCOCc2cccc(N)c2)c1 ? 4.39

How about CCC(C)NS(=O)(=O)CCCOc1ccc(F)cc1 (stereo unspecified) ? -9.51

How about CCOc1ccc(-c2cc(=O)n(CC(=O)N3CCC(Cc4ccccc4)CC3)cn2)cc1 ? 4.32

How about Cn1c(=O)oc2cc(S(=O)(=O)NC3CC4CCC3C4)ccc21 (stereo unspecified) ? -2.35

How about COc1ccc2c(c1)nc(-c1c[nH]c3ccc(N4CCSCC4)cc13)c1[nH]ccc12 ? 97

How about COc1ccc(-c2nc(N3CCC(N(C)C)C3)c3cc(OC)c(OC)cc3n2)cc1 (stereo unspecified) ? -11

How about COc1ccc(-c2ccc(CNc3ccnc(S(=O)(=O)F)c3)s2)cc1 ? 14.7

How about Cn1nc(NC(=O)Nc2ccc(Cl)cc2)cc1C(C)(C)C ? -30.4

How about C=CC(=O)N1CCC[C@H](CC(=O)O)C1 ? 5.85

How about C=CCSc1nc2c(c(=O)[nH]1)C(c1ccc(N(C)C)cc1)C1=C(CCCC1=O)N2 (stereo unspecified) ? -12.3

How about CC1=CC(=O)C=C(C)C1=NOS(=O)(=O)c1ccc(Cl)cc1 ? -20.5

How about O=C(NC1(c2ccc(Cl)cc2)COC1)c1ccc(N2CCCCC2)cc1 ? -14

---

In this section, each of the compounds is paired with its reported inhibition.
- Tested on: E. coli NCTC 12923 growth inhibition, 100 uM
- procedure_details: microbial growth inhibition plus red cell haemolysis – Idler compounds, first plate, PMBN-permeabilized strains, profiling panel (AID 2061108)
- cond: E. coli NCTC 12923 growth inhibition, 100 µM; stronger effect = higher value
Dear colleague, please return just the value in %, with no unit written.

COc1cc2nc(NCCCN(C)C)nc(N3CC(N(C)C)C3)c2cc1OC
11.5

Given the compound O=C(N/N=C/c1ccc2cccc(O)c2n1)c1ccncc1 , what is its reported inhibition? 8.65

How about N#Cc1c(NC[C@H]2CCCN2)nc2ccccc2c1C(F)(F)F ? 12.8

How about CC1=CC(=O)C=C(C)C1=NOS(=O)(=O)c1ccc(Cl)cc1 ? -42.6

---

- Tested on: E. coli NCTC 12923 growth inhibition, 100 uM
- procedure_details: microbial growth inhibition plus red cell haemolysis – Idler compounds, first plate, PMBN-permeabilized strains, profiling panel (AID 2061108)
- cond: E. coli NCTC 12923 growth inhibition, 100 µM; stronger effect = higher value
In this section, each of the compounds is paired with its reported inhibition.
Dear colleague, please return just the value in %, with no unit written.

O=C(N/N=C/c1cnc(C(F)(F)F)nc1)c1ccncc1
-2.16
C=CC(=O)N1CCCc2c(C(=O)O)cccc21
-5.27
O=C(O)c1cc(-c2ccco2)on1
1.89
O=C(N/N=C/c1ccncc1O)c1ccncc1
18.6
O=C(N1CCCCC1)N1CCCCC1Cc1ccccc1 (configuration not stated)
-3.65
O=S(=O)(Nc1ccc(Oc2ccccc2)cc1)c1ccc(-c2nn[nH]n2)cc1
0.135
COc1ccc(Nc2nc(-c3ccoc3)cs2)c(C)c1
-15
COc1ccc(-c2nc(N3CCC(N(C)C)C3)c3cc(OC)c(OC)cc3n2)cc1 (configuration not stated)
6.35

Given the compound COc1ccc2c(c1)nc(-c1c[nH]c3cc(N4CCOCC4)ccc13)c1[nH]ccc12 , what is its reported inhibition? 14.1

How about O=c1[nH]c(=O)c2cc(S(=O)(=O)Nc3cc(F)c(N4CCC(N5CCOCC5)CC4)c(F)c3)ccc2[nH]1 ? -6.35

---

In this section, each of the molecules is paired with its reported inhibition.
- System: E. coli NCTC 12923 + PMBN growth inhibition, 100 uM
- procedure_details: microbial growth inhibition plus red cell haemolysis – Idler compounds, first plate, PMBN-permeabilized strains, profiling panel (AID 2061108)
- cond: S. aureus ATCC 9144 growth inhibition; measured here: E. coli plus PMBN; at 100 µM; stronger effect = higher value
Dear colleague, please return just the value in %, with no unit written.

Please review the following examples before continuing.
COc1cc2nc(Nc3cc(C)[nH]n3)nc(Nc3cc(C)[nH]n3)c2cc1OC
49.1
N#CC1(c2cccc(-c3cccc4c3CCOC4C(=O)O)c2)CC1 (stereo unspecified)
-11.3
COc1cc2nc(Nc3cc(C)[nH]n3)nc(NC3CCN(C(=O)OC(C)(C)C)CC3)c2cc1OC
78.8
O=S(=O)(c1ccc2nncn2c1)N(Cc1cccc(F)c1)c1ccc2c(c1)OCCO2
-20.9
O=S(=O)(F)c1ncc(Cl)cc1Br
-23.7
O=C(Cc1ccc(C(F)(F)F)nc1)N1Cc2cccnc2C1
-4.27
C=CC(=O)N1CCCc2c(C(=O)O)cccc21
-5.12
CC(C)c1conc1CNc1ccnc(S(=O)(=O)F)c1
-0.37

Given the molecule Nc1ncnc2cc(-c3cccc(S(=O)(=O)NC(=O)C(N)CC(=O)O)c3)sc12 (stereo unspecified) , what is its reported inhibition? 8.15

How about CS(=O)(=O)CCCNC[C@@H](O)c1ccccc1 ? 1.22

How about O=C(c1ccccc1)c1ccc(NS(=O)(=O)c2cccc(Cl)c2)cc1 ? 86.3

---

In this section, each of the molecules is paired with its reported inhibition.
- Tested on: E. coli NCTC 12923 + PMBN growth inhibition, 100 uM
- procedure_details: microbial growth inhibition plus red cell haemolysis – Idler compounds, first plate, PMBN-permeabilized strains, profiling panel (AID 2061108)
- cond: S. aureus ATCC 9144 growth inhibition; measured here: E. coli plus PMBN; at 100 µM; stronger effect = higher value
Dear colleague, please return just the value in %, with no unit written.

N#Cc1c(Cl)nc2ccccc2c1C(F)(F)F
-1.22
COc1cccc(C(=O)Nc2nc3cc(Cl)c(OC)cc3s2)c1
-13.2
COC(COc1cncc2nnc(-c3ccc(OC(F)F)cc3)n12)c1ccccc1 (stereo not given)
-28.1
CC(C)c1cc(Nc2nc(N[C@@H](CO)C3CCCCC3)nc3[nH]ncc23)n[nH]1
99.1
Cc1ccc(N2CN(CC(=O)Nc3ccccc3Cl)S(=O)(=O)c3cccnc32)cc1
-25.9
Cc1ncsc1CCCN(C)c1cnc(S(=O)(=O)F)c(Br)c1
0.37
O=C(N1CCCCC1)N1CCCCC1Cc1ccccc1 (stereo not given)
18.1
CC(N)C(=O)NS(=O)(=O)c1cccc(-c2cc3ncnc(N)c3s2)c1 (stereo not given)
-31.8
Cc1cc(C)c(S(=O)(=O)N2CCC(C(=O)NCc3cccnc3)CC2)c(C)c1
5.73
O=C(NCCn1ccc2ccccc21)Nc1c[nH]c2ccccc12
8.41

Given the molecule CCOc1ccc2ncc(C#N)c(N3CCC(C(=O)NCc4ccccc4F)CC3)c2c1 , what is its reported inhibition? -24

How about Oc1ccc(CN2CCN(c3ccccc3F)CC2)c2cccnc12 ? 6.46

How about O=C(Nc1ccc(-c2nn[nH]n2)cc1)c1ccc(Oc2ccccc2)cc1 ? 17.2

How about COc1cc(OC)cc(C2(NC(=O)c3ccc(N4CCOCC4)cc3)COC2)c1 ? 0.123

How about O=C(Nc1nnc2ccccn12)c1ccc2cccc(Cl)c2n1 ? -43.8

How about CC(C)CC(N)C(=O)NS(=O)(=O)c1cccc(-c2cc3ncnc(N)c3s2)c1 (stereo not given) ? -22.3

How about O=C(Nc1ccccc1)C(Cl)C(=O)c1ccccc1 (stereo not given) ? 61.4

How about O=C(Nc1ccc(OC2CCCCC2)cc1)c1ccc(-c2nn[nH]n2)cc1 ? 6.17

How about Nc1ncnc2cc(-c3cccc(S(=O)(=O)NC(=O)C4CCCN4)c3)sc12 (stereo not given) ? -40.7

How about N#Cc1c(NC[C@H]2CCCN2)nc2ccccc2c1C(F)(F)F ? 17.7
